B1: PRPH (parent)
chain: DEIEFLKKLHEEELRDLQVSVESQ

Variants of: B1
assay: protein stability index of a GFP-peptide fusion (GPS, HEK-293T) (PSI 1-6); higher = more stable;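 also: lentivirally expressed fusions sorted by FACS into six bins by GFP to DsRed ratio, PSI derived from sequencing read proportions per bin multiplied by bin number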
condition: c terminus: a fixed tail appended
measured-attribute: protein stability index

Example cases with answers are listed next.
K7G    4.52
K8Q    4.98
L9Q    4.98
V19E    5
E4D    4.93

Looking for the measured protein stability index of "Q24K" , can you help? 4.65

Looking for the measured protein stability index of "L6I" , can you help? 4.97

Looking for the measured protein stability index of "E13I" , can you help? 2.74

Looking for the measured protein stability index of "D1S" , can you help? 4.64

Looking for the measured protein stability index of "Q18E" , can you help? 4.81
